Where do these numbers come from? They come from patent US10457677B2.

Parameter pIC50: see the listing below.
Target: PI3K p110δ/p85α (human) (Homo sapiens (Human), UniProt O00329)
Sequence (O00329 whole entry): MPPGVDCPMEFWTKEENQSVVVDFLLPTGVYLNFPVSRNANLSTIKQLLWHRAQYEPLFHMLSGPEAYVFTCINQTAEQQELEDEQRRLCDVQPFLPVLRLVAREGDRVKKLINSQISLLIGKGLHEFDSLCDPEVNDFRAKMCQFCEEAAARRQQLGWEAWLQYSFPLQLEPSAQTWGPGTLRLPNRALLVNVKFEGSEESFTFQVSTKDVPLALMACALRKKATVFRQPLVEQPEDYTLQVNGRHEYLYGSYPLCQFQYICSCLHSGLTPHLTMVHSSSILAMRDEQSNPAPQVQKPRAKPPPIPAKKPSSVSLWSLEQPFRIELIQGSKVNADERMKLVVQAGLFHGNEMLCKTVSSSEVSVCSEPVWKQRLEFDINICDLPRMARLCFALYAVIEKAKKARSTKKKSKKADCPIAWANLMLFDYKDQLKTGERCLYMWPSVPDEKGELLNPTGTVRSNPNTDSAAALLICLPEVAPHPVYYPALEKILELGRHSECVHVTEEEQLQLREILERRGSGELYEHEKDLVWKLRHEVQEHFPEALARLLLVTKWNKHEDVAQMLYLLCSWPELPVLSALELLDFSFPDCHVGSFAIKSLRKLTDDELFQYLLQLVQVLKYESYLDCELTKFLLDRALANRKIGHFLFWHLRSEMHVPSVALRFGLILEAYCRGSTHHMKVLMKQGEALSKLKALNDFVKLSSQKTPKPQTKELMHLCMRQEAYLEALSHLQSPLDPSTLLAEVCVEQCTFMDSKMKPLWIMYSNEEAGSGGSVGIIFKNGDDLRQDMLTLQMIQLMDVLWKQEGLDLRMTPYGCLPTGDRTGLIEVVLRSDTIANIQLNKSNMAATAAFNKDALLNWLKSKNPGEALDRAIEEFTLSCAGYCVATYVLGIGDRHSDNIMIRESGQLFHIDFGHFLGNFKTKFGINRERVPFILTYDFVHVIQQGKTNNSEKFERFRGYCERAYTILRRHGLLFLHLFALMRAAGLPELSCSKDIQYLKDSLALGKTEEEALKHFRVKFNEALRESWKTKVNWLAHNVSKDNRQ
Sequence (P27986 whole entry partner): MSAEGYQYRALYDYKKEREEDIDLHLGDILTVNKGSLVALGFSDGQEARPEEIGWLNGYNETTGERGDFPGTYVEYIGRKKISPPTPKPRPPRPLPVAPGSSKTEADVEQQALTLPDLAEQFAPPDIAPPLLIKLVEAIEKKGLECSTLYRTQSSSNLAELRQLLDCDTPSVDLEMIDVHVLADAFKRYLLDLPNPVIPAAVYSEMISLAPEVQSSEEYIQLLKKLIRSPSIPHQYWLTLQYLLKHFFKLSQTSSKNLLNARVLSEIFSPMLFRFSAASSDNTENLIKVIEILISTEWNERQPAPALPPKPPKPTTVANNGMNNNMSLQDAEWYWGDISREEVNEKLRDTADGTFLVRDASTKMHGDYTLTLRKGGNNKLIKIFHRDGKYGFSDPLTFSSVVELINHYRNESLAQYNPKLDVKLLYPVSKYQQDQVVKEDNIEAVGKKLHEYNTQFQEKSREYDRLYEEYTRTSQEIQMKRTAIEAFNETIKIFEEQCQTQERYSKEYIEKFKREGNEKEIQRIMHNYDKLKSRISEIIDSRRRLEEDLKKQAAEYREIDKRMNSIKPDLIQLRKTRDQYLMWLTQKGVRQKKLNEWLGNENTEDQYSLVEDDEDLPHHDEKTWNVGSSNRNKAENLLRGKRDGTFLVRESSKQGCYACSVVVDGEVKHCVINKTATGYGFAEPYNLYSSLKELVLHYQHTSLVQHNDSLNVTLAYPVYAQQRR
Experiment: PI3K p110δ/p85α (human), non-radioactive assay (HTRF)
Details: read-out: IC50 (PI3Kdelta)
pIC50: −log10 of the molar value.

[
  {
    "SMILES_REPR": "COc1cc2ncc3c(c2cc1-c1cn[nH]c1)n(-c1cnn(C2CCOCC2)c1)c(=O)n3C",
    "RESULT": "< 4.52"
  },
  {
    "SMILES_REPR": "COc1cc2ncc3c(c2cc1-c1cnn(C)c1)n(-c1ccncc1)c(=O)n3C",
    "RESULT": "< 4.52"
  },
  {
    "SMILES_REPR": "COc1cc2ncc3c(c2cc1-c1cn(C)nc1C)n(-c1c(F)cncc1OC)c(=O)n3C",
    "RESULT": "< 5.00"
  }
]

Lookup: Entry `COc1cc2ncc3c(c2cc1-c1cnn(C)c1)n(-c1c[nH]nc1C)c(=O)n3C` , system PI3K p110δ/p85α (human) (Homo sapiens (Human), UniProt O00329): what pIC50 was measured?
Found: < 4.52

====

Parameter IC50: see the listing below.
Biological target: PI3K p110δ/p85α (human) (Homo sapiens (Human), UniProt O00329)
Assay: PI3K p110δ/p85α (human), non-radioactive assay (HTRF)
Conditions: read-out: IC50 (PI3Kdelta)

[
  {
    "SMILES_REPR": "COc1cc2ncc3c(c2cc1-c1cnn(C)c1)n(-c1ccncc1OC)c(=O)n3C",
    "QUANTITY": "IC50",
    "RESULT": "> 30 µM"
  },
  {
    "SMILES_REPR": "COc1cc2ncc3c(c2cc1-c1cn[nH]c1)n(-c1ccnn1C)c(=O)n3C",
    "QUANTITY": "IC50",
    "RESULT": "> 30 µM"
  },
  {
    "SMILES_REPR": "CCn1cc(-c2cc3c(cc2OC)ncc2c3n(-c3cn(C)nc3C)c(=O)n2C)cn1",
    "QUANTITY": "IC50",
    "RESULT": "> 30 µM"
  }
]

// next entry
Lookup: Need IC50 of `CCn1cc(-c2cc3c(cc2OC)ncc2c3n(-c3ncccc3F)c(=O)n2C)cn1` , thanks.
Found: > 30 µM

====

Molecular target: PI3K p110δ/p85α (human) (Homo sapiens (Human), UniProt O00329)
Assay: PI3K p110δ/p85α (human), non-radioactive assay (HTRF)
Conditions: read-out: IC50 (PI3Kdelta)
Parameter IC50: see the listing below.

Examples from the recorded data:
[
  {
    "COMPOUND": "CCc1cncc(C)c1-n1c(=O)n(C)c2cnc3cc(OC)c(-c4cnn(CC)c4)cc3c21 [compound 61]",
    "ASSAY_SYSTEM": "PI3K p110δ/p85α (human) (Homo sapiens (Human), UniProt O00329)",
    "IC50": "> 30 µM"
  },
  {
    "COMPOUND": "CCc1cncc(F)c1-n1c(=O)n(C)c2cnc3cc(OC)c(-c4cnn(C)c4)cc3c21 [Compound Example 12]",
    "ASSAY_SYSTEM": "PI3K p110δ/p85α (human) (Homo sapiens (Human), UniProt O00329)",
    "IC50": "> 30 µM"
  },
  {
    "COMPOUND": "COc1cc2ncc3c(c2cc1-c1cnn(C)c1)n(-c1ncc(C)cc1F)c(=O)n3C [Compound Example 27]",
    "ASSAY_SYSTEM": "PI3K p110δ/p85α (human) (Homo sapiens (Human), UniProt O00329)",
    "IC50": "> 30 µM"
  }
]

Lookup: Need IC50 of COc1cc2ncc3c(c2cc1-c1cnn(C)c1)n(-c1ncc(F)cn1)c(=O)n3C [Compound Example 36] , thanks.
Found: > 30 µM

Lookup: Now try CCc1cncc(F)c1-n1c(=O)n(C)c2cnc3cc(OC)c(-c4cnn(CC)c4)cc3c21 [Compound Example 25] .
Found: > 30 µM

Lookup: Now try CCn1cc(-c2cc3c(cc2OC)ncc2c3n(-c3ccncc3F)c(=O)n2C)cn1 [Compound Example 33] .
Found: > 30 µM

Lookup: Now try COc1cc2ncc3c(c2cc1-c1cnn(C)c1)n(-c1cnn(C)c1)c(=O)n3C [Compound Example 23] .
Found: > 30 µM
